# Target Under Test: Human α2δ-1 subunit of Cav2.2 calcium channel (Homo sapiens, UniProt P54289)
# Sequence (P54289 25-1103): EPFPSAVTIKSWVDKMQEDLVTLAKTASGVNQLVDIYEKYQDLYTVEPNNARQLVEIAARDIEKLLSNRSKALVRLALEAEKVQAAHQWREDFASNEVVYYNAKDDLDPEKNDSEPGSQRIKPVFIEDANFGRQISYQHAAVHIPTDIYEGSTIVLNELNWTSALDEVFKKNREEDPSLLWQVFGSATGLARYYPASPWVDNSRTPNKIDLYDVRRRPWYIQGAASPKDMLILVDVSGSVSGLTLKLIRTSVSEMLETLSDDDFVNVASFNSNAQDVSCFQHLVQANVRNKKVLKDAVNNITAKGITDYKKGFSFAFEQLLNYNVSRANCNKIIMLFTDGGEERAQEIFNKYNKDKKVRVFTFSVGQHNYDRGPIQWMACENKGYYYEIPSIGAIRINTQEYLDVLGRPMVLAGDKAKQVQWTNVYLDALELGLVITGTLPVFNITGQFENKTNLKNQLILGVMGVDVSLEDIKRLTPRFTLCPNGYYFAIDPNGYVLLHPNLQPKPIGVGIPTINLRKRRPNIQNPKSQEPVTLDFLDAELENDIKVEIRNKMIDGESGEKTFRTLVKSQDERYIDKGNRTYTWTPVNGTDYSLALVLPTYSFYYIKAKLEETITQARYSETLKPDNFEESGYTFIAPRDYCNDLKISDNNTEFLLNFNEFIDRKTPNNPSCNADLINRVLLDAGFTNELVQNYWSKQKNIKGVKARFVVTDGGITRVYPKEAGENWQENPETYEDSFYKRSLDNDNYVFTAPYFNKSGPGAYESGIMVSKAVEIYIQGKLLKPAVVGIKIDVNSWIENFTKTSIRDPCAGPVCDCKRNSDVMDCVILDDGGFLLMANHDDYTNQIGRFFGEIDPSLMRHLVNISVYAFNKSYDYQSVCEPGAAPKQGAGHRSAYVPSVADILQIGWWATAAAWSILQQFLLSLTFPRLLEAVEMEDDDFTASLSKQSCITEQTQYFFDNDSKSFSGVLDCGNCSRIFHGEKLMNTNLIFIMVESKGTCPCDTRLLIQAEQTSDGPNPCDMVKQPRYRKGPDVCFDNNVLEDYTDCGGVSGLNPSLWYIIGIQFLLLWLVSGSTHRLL
# Assay Info: Binding assay to human α2δ-1 subunit of Cav2.2 calcium channel, [3H]-Gabapentin
# Measurement Context: human α2δ-1 enriched membranes, 15 nM [3H]-Gabapentin; read-out: Ki (nM) alpha2delta Hum
Observation Type: Ki

>  <Compound>
CNCC[C@H](c1ccc(Cl)s1)N1CCc2ncccc21

>  <Test Value>
500 to 3000 nM

$$$$
>  <Compound>
CNCC[C@@H](c1cccc(F)c1)N1CCc2ncccc21

>  <Test Value>
500 to 3000 nM

$$$$
>  <Compound>
CNCC[C@@H](c1cccs1)N1CCc2ncc(F)cc21

>  <Test Value>
100 to 500 nM

$$$$
>  <Compound>
CNCC[C@@H](c1cc(C)sc1C)N1CCc2ncccc21

>  <Test Value>
≥ 3000 nM

$$$$
>  <Compound>
NCCC(c1cccs1)N1CCc2ncccc21 (centres unmarked)

>  <Test Value>
≥ 3000 nM

$$$$
